Target: T1, E276A
T1 construct: % monomer 86.14; also called MICA*008.mIgG2a E276A
T1 chain: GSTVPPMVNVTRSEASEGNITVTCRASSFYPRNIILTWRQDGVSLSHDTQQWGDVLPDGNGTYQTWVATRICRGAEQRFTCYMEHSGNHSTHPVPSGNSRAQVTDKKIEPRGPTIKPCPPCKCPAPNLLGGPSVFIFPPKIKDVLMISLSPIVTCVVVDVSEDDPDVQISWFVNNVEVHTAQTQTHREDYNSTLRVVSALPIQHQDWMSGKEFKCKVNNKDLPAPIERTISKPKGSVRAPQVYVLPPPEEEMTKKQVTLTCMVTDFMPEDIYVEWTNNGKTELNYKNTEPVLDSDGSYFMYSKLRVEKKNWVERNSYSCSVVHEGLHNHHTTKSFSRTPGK
Test: SPR, Fab over captured MICA*008.mIgG2a Ala variant; KD relative to wild type
measure.name: fold-decrease in affinity
Give the figure by itself; no unit, no explanation.

binder	endpoint.value
6F8.7 Fab (Fab, V domains shown) VH: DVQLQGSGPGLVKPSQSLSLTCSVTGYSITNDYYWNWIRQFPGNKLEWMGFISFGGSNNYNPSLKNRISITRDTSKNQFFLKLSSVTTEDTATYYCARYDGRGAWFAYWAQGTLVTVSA VL: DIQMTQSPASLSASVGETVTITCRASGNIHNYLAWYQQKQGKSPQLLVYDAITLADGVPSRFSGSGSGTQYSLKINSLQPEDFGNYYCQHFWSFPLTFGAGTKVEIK	4.3
1D5 Fab (Fab, V domains shown, Expressed in E. coli as chimera of murine variable and human constant domains; not shown: human IgG1 CH1 constant domain; human kappa CL constant domain) VH: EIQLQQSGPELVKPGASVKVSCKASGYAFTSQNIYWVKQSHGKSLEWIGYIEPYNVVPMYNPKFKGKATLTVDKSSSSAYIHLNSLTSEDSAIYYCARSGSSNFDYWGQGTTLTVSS VL: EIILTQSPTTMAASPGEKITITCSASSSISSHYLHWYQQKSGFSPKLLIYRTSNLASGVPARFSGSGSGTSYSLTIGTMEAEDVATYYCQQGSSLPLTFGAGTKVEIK	22

Now for a further binder.
Value lookup for fold-decrease in affinity; key = 2E5.2.3 Fab (Fab, V domains shown) VH: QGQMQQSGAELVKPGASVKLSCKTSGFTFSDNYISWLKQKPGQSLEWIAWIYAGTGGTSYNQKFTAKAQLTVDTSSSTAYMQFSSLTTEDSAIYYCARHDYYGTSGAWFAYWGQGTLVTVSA VL: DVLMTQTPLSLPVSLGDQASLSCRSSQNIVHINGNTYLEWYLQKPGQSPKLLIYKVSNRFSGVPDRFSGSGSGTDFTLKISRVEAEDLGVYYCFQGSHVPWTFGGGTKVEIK
1.2
